As shown below, each of these compounds has a reported EC50 value.
- target or test system: UniProt:P07550
- Sequence (P07550 whole entry): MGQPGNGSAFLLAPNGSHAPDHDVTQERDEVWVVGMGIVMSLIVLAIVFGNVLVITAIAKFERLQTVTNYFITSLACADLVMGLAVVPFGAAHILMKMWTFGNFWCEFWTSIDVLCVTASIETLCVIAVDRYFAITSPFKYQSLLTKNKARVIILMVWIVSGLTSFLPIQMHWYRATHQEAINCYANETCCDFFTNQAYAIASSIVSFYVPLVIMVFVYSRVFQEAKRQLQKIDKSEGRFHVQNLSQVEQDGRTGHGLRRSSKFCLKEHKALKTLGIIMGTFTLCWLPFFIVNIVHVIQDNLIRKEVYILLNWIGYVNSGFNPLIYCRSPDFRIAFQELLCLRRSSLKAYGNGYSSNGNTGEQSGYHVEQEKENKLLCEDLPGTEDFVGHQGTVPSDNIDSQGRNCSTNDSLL
- experiment: cAMP Flashplate assay in CHO cells recombinantly expressing the human β2 adrenergic receptor
- particulars: CHOhβ2 cells, 1 hour incubation, data as % Isoprenaline activity
Kindly provide the numeric value in nM only, without the unit symbol.

Example entries begin here.
mol=CC(C)(Cc1cccc(C(=O)NCC2Cc3ccccc3C2)c1)NC[C@H](O)c1ccc(O)c(CO)c1 target_or_test_system=UniProt:P07550 unit_spec=nM data_value=1.16
mol=CC(C)(Cc1cccc(CC(=O)NCc2cc(C(F)(F)F)ccc2F)c1)NC[C@H](O)c1ccc(O)c(CO)c1 target_or_test_system=UniProt:P07550 unit_spec=nM data_value=0.15
mol=CC(C)(Cc1cccc(C(=O)NCCC23CC4CC(CC(C4)C2)C3)c1)NC[C@H](O)c1ccc(O)c(CO)c1 target_or_test_system=UniProt:P07550 unit_spec=nM data_value=0.134
mol=C[C@H](Cc1cccc(CC(=O)NCC23CC4CC(CC(C4)C2)C3)c1)NC[C@H](O)c1ccc(O)c(CO)c1 target_or_test_system=UniProt:P07550 unit_spec=nM data_value=0.064

Note to self: EC50 recorded for C[C@H](Cc1cccc(C(=O)NCc2ccc(S(N)(=O)=O)cc2)c1)NC[C@H](O)c1ccc(O)c(CO)c1 was 0.444

Record O=C(Cc1cccc(CCNC[C@H](O)c2ccc(O)c(CO)c2)c1)NCCc1ccccc1 . Reported EC50: 0.838

The compound listed as CC(C)(Cc1cccc(C(=O)NCCc2ccccc2C(F)(F)F)c1)NC[C@H](O)c1ccc(O)c(CO)c1 has a reported EC50 of 0.1

Looking up CC(C)(Cc1cccc(C(=O)NCCc2cccc(F)c2)c1)NC[C@H](O)c1ccc(O)c(CO)c1 , I see its EC50 listed as 0.075
